Biological target: T1, FcRL1, overexpressed on 3T3 cells (UniProt Q96LA6 17-429, limits assumed)
T1 construct: whole, on cells
T1 sequence (looked up): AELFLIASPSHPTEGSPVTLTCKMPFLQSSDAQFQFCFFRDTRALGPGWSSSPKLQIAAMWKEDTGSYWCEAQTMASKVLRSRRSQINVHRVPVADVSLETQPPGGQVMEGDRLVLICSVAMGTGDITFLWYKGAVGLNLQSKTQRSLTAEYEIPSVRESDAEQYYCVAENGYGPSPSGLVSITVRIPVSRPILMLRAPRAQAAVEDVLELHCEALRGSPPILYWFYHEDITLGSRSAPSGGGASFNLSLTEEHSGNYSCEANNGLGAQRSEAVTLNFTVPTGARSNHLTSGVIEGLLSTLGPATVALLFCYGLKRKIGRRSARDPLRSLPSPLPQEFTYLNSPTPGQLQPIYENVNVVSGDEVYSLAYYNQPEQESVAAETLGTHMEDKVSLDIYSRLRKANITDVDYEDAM
Assay: phage clone on 3T3-FcRL1 cells

{"columns": ["BINDER", "binding result"],
 "data": [
  ["ET200-031 (scFv, screened as phage clone; entry is VL-linker-VH-His tag-HA tag; also called ET200-31) scFv: SYVLTQPPSVSVAPGKTARITCGGNNIGSKSVHWYQQKPGQAPVLVIYYDSDRPSGIPERFSGSNSGNTATLTISRVEAGDEADYYCQVWDSSSDYVFGTGTKVTVLGSRGGGGSGGGGSGGGGSLEMAEVQLVETGGGLVKPGGSLRLSCAASGFTVSDYYMSWIRQAPGKGLEWISYISGSGNSIYYADSVKGRFTISRDNAKNSLDLQMTSLRAEDTAVYYCARSTKFDYWGQGTLVTVSSTSGQAGQHHHHHHGAYPYDVPDYAS", "no binding"],
  ["ET200-028 (scFv, screened as phage clone; entry is VL-linker-VH-His tag-HA tag) scFv: QSVLTQPPAASGTPGQRVTISCSGGVSNIGSGALNWYQQLPGTAPKLLIYSYNQRPSGVSDRFSGSRSATSASLAISGLQSEDEADYYCATWDDSVNGWVFGGGTKLTVLGSRGGGGSGGGGSGGGGSLEMAQVQLVQSGAEVKKPGDSVKVSCKPSGYNFLNYGINWVRQAPGQGLEWMGWISTYTGNTNYAQKLQGRVTFTTDTSTSTAYMEMRSLRSDDTAVYYCARDLYYYEGVDYWGQGTLVTVSSTSGQAGQHHHHHHGAYPYDVPDYAS", "no binding"]
]}
